Listed next: entries and their corresponding protein stability index.
B1: PHTF1 (parent)
chain: SRHLNSQVKKTTTRWCHIVRDSDS

Variants of: B1
Assay: protein stability index of a GFP-peptide fusion (GPS, HEK-293T) (PSI 1-6); higher = more stable;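 further: lentivirally expressed fusions sorted by FACS into six bins by GFP to DsRed ratio, PSI derived from sequencing read proportions per bin multiplied by bin number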
Settings: c terminus: a fixed tail appended
measurementKind: protein stability index

variantidentifier=S6P measurementkind="protein stability index" number=3.03
variantidentifier=D23Y measurementkind="protein stability index" number=1.88
variantidentifier=H17I measurementkind="protein stability index" number=1.65
variantidentifier=L4P measurementkind="protein stability index" number=2.44
variantidentifier=K10Q measurementkind="protein stability index" number=2.19
variantidentifier=L4Y measurementkind="protein stability index" number=1.76
variantidentifier=N5Q measurementkind="protein stability index" number=1.92
variantidentifier=H3A measurementkind="protein stability index" number=2.23
variantidentifier=N5I measurementkind="protein stability index" number=2.73
variantidentifier=L4H measurementkind="protein stability index" number=2.15
variantidentifier=V19I measurementkind="protein stability index" number=1.75
variantidentifier=S6R measurementkind="protein stability index" number=2.17
variantidentifier=S6N measurementkind="protein stability index" number=2.44
variantidentifier=S1Q measurementkind="protein stability index" number=2.38
variantidentifier=H17A measurementkind="protein stability index" number=1.42
variantidentifier=S24K measurementkind="protein stability index" number=1.92
variantidentifier=S24N measurementkind="protein stability index" number=2.66
variantidentifier=S22L measurementkind="protein stability index" number=1.78
variantidentifier=S22A measurementkind="protein stability index" number=1.82
variantidentifier=C16D measurementkind="protein stability index" number=3.34
variantidentifier=S24C measurementkind="protein stability index" number=2
variantidentifier=V8C measurementkind="protein stability index" number=2.6

Sourced from the supplement of paper PMC10567573
